Tested on: Coxsackie virus B6
ASSAY_REMARKS: Coxsackie virus activity assay (CPE in Vero cells)
Assay type: cell-based
MEASUREMENT_CONTEXT: Vero, read-out: COX-B6 IC50, Vero cells, about 100TCID50, CPE, Reed-Muench
Label key: True means IC50 under 1 µg/mL; False means IC50 of 1 µg/mL or more.

COMPOUND: COC(=O)c1c(CCc2ccccc2)cc(OC)c(CC=C(C)C)c1O
CLASSIFICATION: False
//
COMPOUND: COC(=O)c1c(/C=C/c2ccccc2)cc(OC)c(CC=C(C)C)c1OC(=O)C(=O)O [Compound 31a]
CLASSIFICATION: False
//
COMPOUND: COc1cc(/C=C/c2ccccn2)cc(O)c1CC=C(C)C [Compound 10x]
CLASSIFICATION: True
//
COMPOUND: COc1cc(/C=C/c2cccs2)cc(O)c1CC=C(C)C [Compound 10j]
CLASSIFICATION: False
//
COMPOUND: COC(=O)c1c(/C=C/c2ccccc2)cc(OC)c(CC=C(C)C)c1OCC1CNCCN1 (stereo not drawn) [Compound 26d]
CLASSIFICATION: False
//
COMPOUND: COc1cc(/C=C(\C(=O)O)c2ccccc2)c(C(=O)O)c(O)c1CC=C(C)C
CLASSIFICATION: True
//
COMPOUND: COC(=O)c1c(/C=C/c2cc(OC)cc(OC)n2)cc(OC)c(CC=C(C)C)c1O
CLASSIFICATION: False
//
COMPOUND: COc1cc(/C=C/c2ccccc2)cc(OC(C)=O)c1CC=C(C)C [Compound 24i]
CLASSIFICATION: True
//
COMPOUND: COc1cc(/C=C/c2ccccn2)c(C(=O)O)c(O)c1CC=C(C)C
CLASSIFICATION: True
//
COMPOUND: COC(=O)c1c(/C=C/c2ccccc2)cc(OC)c(CC=C(C)C)c1OC(=O)c1cccnc1 [Compound 24j]
CLASSIFICATION: False
//
COMPOUND: COc1cc(/C=C(\C)c2cc(O)cc(O)c2)cc(OC)c1 [Compound 21g]
CLASSIFICATION: False
//
COMPOUND: COc1cc(/C=C/c2ccccc2)c(C(=O)O)c(OCC2CNCCN2)c1CC=C(C)C (stereo not drawn) [Compound 26e]
CLASSIFICATION: False
